Test system: HaCat
experiment_description: Cytotoxic Profiling of Annotated Libraries Using Quantitative High-Throughput Screening (AID 1296008); further: on the % scale 0 is the no-effect control and ±100 the full control effect
experimental_context: Five cell lines viability, CellTiter-Glo ATP luminescence, 48-72 h; stronger effect = lower value
Results filed as inconclusive are left out.
quantity_name: max response (%)
The figure you give is taken to be in %; do not add the unit.

CC(O)CCCCn1c(=O)c2c(ncn2C)n(C)c1=O (stereo not given) ... -6.07
O=C(O)CCCc1ccccc1 ... 2.59

Problem: What does the record list as max response for CCCCCCCCCCCCCCCCCCO ?
Result: -4.21

Problem: What does the record list as max response for O=c1[nH]c2cc(C(F)(F)F)c(N3CCOCC3)cc2n(CP(=O)(O)O)c1=O ?
Result: 2.4

Problem: What does the record list as max response for OC[C@@H](O)[C@@H](O)[C@H](O)[C@H](O)CO ?
Result: 0.927

Problem: What does the record list as max response for CCCCCCCC(=O)OCC(O)CO (stereo not given) ?
Result: -12

Problem: What does the record list as max response for Cc1ccsc1C(=CCCN1CCC[C@@H](C(=O)O)C1)c1sccc1C ?
Result: 3.8
